Experiment: AUC in Sprague-Dawley rat brain at 10 mg/kg, po by UPLC-MS analysis
Type: ADME, organism-based

COMPOUND: Cl.O=C(NCCCCN1CCN(c2cccc(Cl)c2Cl)CC1)Oc1ccc(-c2ccccc2)cc1
AUC [ng·h/mL]: 1.41

---

Test: Tmax in Sprague-Dawley rat brain at 10 mg/kg, po by UPLC-MS analysis
Format: ADME, organism-based

COMPOUND: Cl.O=C(NCCCCN1CCN(c2cccc(Cl)c2Cl)CC1)Oc1ccc(-c2ccccc2)cc1
Tmax: 4 h

---

Experiment: Clearance in Sprague-Dawley rat plasma at 3 mg/kg, iv by UPLC-MS analysis
Type: ADME, organism-based
MEASURED_PROPERTY: clearance (mL/min/kg)

COMPOUND: Cl.O=C(NCCCCN1CCN(c2cccc(Cl)c2Cl)CC1)Oc1ccc(-c2ccccc2)cc1
DATA_VALUE: 110
